The values you see were collected from patent US20250136619A1.

Each record here notes measured GI50.
Test system: HEK293 cells
Test details: Cellular growth inhibition assay (CellTiter-Glo), HEK293 cells
Type: cell-based
Run parameters: HEK293 cells, three days of compound treatment, CellTiter-Glo 2.0; read-out: CTG HEK293 GI50

# count of solved cases: 2
Compound	GI50
CCc1cnn2c(NCc3ccc(OCCCc4cc(-c5cnc([C@H](C)Nc6nccc(N7C(=O)OC[C@@H]7[C@H](C)F)n6)cc5C)cc(C(F)(F)F)n4)nc3)cc(N3CCCC[C@H]3CCO)nc12 [Compound I-101]	< 500 nM
CCc1cnn2c(NCc3ccc(OCCCN4CCN(CCCN(C)C/C=C/C(=O)N5CCC[C@@H](n6nc(-c7ccc(Oc8ccccc8)cc7)c7c(N)ncnc76)C5)CC4)nc3)cc(N3CCCC[C@H]3CCO)nc12 [Compound I-69]	< 500 nM

Shifting focus to the compound that follows.
Note down GI50 recorded for CCc1cnn2c(NCc3ccc(=O)n(CCOCCOCCOCCOCCCc4cc(-c5cnc([C@H](C)Nc6nccc(N7C(=O)OC[C@@H]7[C@H](C)F)n6)cc5C)cc(C(F)(F)F)n4)c3)cc(N3CCCC[C@H]3CCO)nc12 [Compound I-103] 500 to 1500 nM

###

Data export: Kd values recorded with mTOR (Homo sapiens (Human), UniProt P42345).

Some compounds with recorded Kd:
Compound	Endpoint value
C[C@@H]1COCCN1c1nc(N2CCOC[C@H]2C)c2ccc(-c3cccc(C(=O)NCCOCCOCCOCCOCCOCCOCCOCCOCCOc4ccc(C(=O)N[C@H]5C(C)(C)[C@H](Oc6ccc(C#N)c(Cl)c6)C5(C)C)cc4)c3)nc2n1	< 50 nM
C[C@@H]1COCCN1c1nc(N2CCOC[C@H]2C)c2ccc(-c3cccc(C(=O)NCCCCCCCC/C=C/C(=O)N4CCC[C@@H](n5nc(-c6ccc(Oc7ccccc7)cc6)c6c(N)ncnc65)C4)c3)nc2n1	50 to 500 nM
Nc1nc2cc(-c3nn(CCCCC(=O)NCCCCCCCC/C=C/C(=O)N4CCC[C@@H](n5nc(-c6ccc(Oc7ccccc7)cc6)c6c(N)ncnc65)C4)c4ncnc(N)c34)ccc2o1	500 to 2500 nM
C[C@@H]1COCCN1c1nc(N2CCOC[C@H]2C)c2ccc(-c3cccc(C(=O)NCCOCCOCCOCCOC/C=C/C(=O)N4CCC[C@@H](n5nc(-c6ccc(Oc7ccccc7)cc6)c6c(N)ncnc65)C4)c3)nc2n1	50 to 500 nM
C[C@@H]1COCCN1c1nc(N2CCOC[C@H]2C)c2ccc(-c3cccc(C(=O)NCCOCCOCCOCCOCCOc4ccc(C(=O)NC5C(C)(C)C(Oc6ccc(C#N)c(Cl)c6)C5(C)C)cc4)c3)nc2n1 (stereo partly drawn)	50 to 500 nM

Send back mTOR (Homo sapiens (Human), UniProt P42345) Kd of C[C@@H]1COCCN1c1nc(N2CCOC[C@H]2C)c2ccc(-c3cccc(C(=O)NCCOCCOCCOCCOCCOCCOCCOCCOC/C=C/C(=O)N4CCC[C@@H](n5nc(-c6ccc(Oc7ccccc7)cc6)c6c(N)ncnc65)C4)c3)nc2n1 only. 50 to 500 nM

###

Reported pKd, BTK (Homo sapiens (Human)).
pKd: −log10 of the molar value.

See these solved cases before continuing.
Entry smiles	Measurement target	pKd
CC[C@@H]1C(=O)N(C)c2cnc(Nc3ccc(C(=O)NCCOCCOCCOC/C=C/C(=O)N4CCC[C@@H](n5nc(-c6ccc(Oc7ccccc7)cc6)c6c(N)ncnc65)C4)cc3OC)nc2N1C1CCCC1	BTK (Homo sapiens (Human))	6.30 to 7.30
CCc1cnn2c(NCc3ccc(OCCOCCOCCOCCOCCOCCOCCOCCOCCN(C)C/C=C/C(=O)N4CCC[C@@H](n5nc(-c6ccc(Oc7ccccc7)cc6)c6c(N)ncnc65)C4)nc3)cc(N3CCCC[C@H]3CCO)nc12	BTK (Homo sapiens (Human))	> 7.30
CCc1cnn2c(NCc3ccc(OCCOCCOCCOCCOCCN(C)C/C=C/C(=O)N4CCC[C@@H](n5nc(-c6ccc(Oc7ccccc7)cc6)c6c(N)ncnc65)C4)nc3)cc(N3CCCC[C@H]3CCO)nc12	BTK (Homo sapiens (Human))	> 7.30

State pKd on BTK (Homo sapiens (Human)). Entry: CCc1cnn2c(NCc3ccc(OCCOCCOCCOCCOCCN(C)C/C=C/C(=O)N(C)CCOc4c(N)ncnc4-c4cc(F)cc(NC(=O)c5ccc(C6CC6)cc5F)c4C)nc3)cc(N3CCCC[C@H]3CCO)nc12 5.60 to 6.30

Recall the reported pKd of CCc1cnn2c(NCc3ccc(OCCCN4CCN(CCCN(C)C/C=C/C(=O)N(C)CCOc5c(N)ncnc5-c5cc(F)cc(NC(=O)c6ccc(C7CC7)cc6F)c5C)CC4)nc3)cc(N3CCCC[C@H]3CCO)nc12 on BTK (Homo sapiens (Human)) and write it down. > 7.30

###

Measurement target: CDK9 (Homo sapiens (Human), UniProt P50750)
Sequence (P50750 whole entry): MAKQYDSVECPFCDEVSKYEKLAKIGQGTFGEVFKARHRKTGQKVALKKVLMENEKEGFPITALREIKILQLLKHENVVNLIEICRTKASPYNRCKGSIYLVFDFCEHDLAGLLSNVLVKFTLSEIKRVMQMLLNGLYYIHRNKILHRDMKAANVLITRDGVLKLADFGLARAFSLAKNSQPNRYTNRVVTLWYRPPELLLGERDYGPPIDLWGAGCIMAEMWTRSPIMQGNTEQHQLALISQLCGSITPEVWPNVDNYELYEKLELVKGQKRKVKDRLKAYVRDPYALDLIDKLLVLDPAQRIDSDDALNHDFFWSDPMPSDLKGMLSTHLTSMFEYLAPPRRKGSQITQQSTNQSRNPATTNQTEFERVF
Test details: KdELECT assay for binding affinity to CDK9
Value type: Kd

Compound	Measurement target	Endpoint value
CCc1cnn2c(NCc3ccc(OCCOCCOCC(=O)N4CC(=O)N(c5cc(C#N)ccn5)[C@H](C(=O)N(c5cc(F)cc(F)c5)[C@H](C(=O)NC5CC(F)(F)C5)c5ccccc5Cl)C4)nc3)cc(N3CCCC[C@H]3CCO)nc12 [Compound I-97]	CDK9 (Homo sapiens (Human), UniProt P50750)	50 to 500 nM
NC(=O)c1c(F)cccc1Nc1nc(Nc2ccc(S(=O)(=O)NCCOCCOCCOC3CCN(C/C=C/C(=O)N4CCC[C@@H](n5nc(-c6ccc(Oc7ccccc7)cc6)c6c(N)ncnc65)C4)CC3)cc2)ncc1Br [Compound I-68]	CDK9 (Homo sapiens (Human), UniProt P50750)	500 to 2500 nM
CCc1cnn2c(NCc3ccc(OCCOCCOCCOCCOCCOC/C=C/C(=O)N4CCC[C@@H](n5nc(-c6ccc(Oc7ccccc7)cc6)c6c(N)ncnc65)C4)nc3)cc(N3CCCC[C@H]3CCO)nc12 [Compound I-42]	CDK9 (Homo sapiens (Human), UniProt P50750)	50 to 500 nM

Jot down Kd (CDK9 (Homo sapiens (Human), UniProt P50750)) of CCc1cnn2c(NCc3ccc(=O)n(CCOCCOCCNS(=O)(=O)c4cc(F)cc(N(C(=O)[C@@H]5CCC(=O)N5c5cc(C#N)ccn5)C(C(=O)NC5CC(F)(F)C5)c5ccccc5Cl)c4)c3)cc(N3CCCC[C@H]3CCO)nc12 (stereo partly shown) [Compound I-93] . 500 to 2500 nM

Find the measured Kd of CCc1cnn2c(NCc3ccc(OCCOCCOCCOCCOCCN(C)C/C=C/C(=O)N(C)CCOc4c(N)ncnc4-c4cc(F)cc(NC(=O)c5ccc(C6CC6)cc5F)c4C)nc3)cc(N3CCCC[C@H]3CCO)nc12 [Compound I-77] with CDK9 (Homo sapiens (Human), UniProt P50750) as test system. 50 to 500 nM

Quote CDK9 (Homo sapiens (Human), UniProt P50750) Kd for entry CCc1cnn2c(NCc3ccc(OCCCN4CCN(CCCN(C)C/C=C/C(=O)N5CCC[C@@H](n6nc(-c7ccc(Oc8ccccc8)cc7)c7c(N)ncnc76)C5)CC4)nc3)cc(N3CCCC[C@H]3CCO)nc12 [Compound I-69] . < 50 nM

Provide Kd, recorded with CDK9 (Homo sapiens (Human), UniProt P50750), of CCc1cnn2c(NCc3ccc(OCCOCCOCCOC4CCN(C/C=C/C(=O)N(C)CCOc5c(N)ncnc5-c5cc(F)cc(NC(=O)c6ccc(C7CC7)cc6F)c5C)CC4)nc3)cc(N3CCCC[C@H]3CCO)nc12 [Compound I-82] < 50 nM
